Cited source: the supplement of paper PMC9112550

# Test system: Escherichia coli TOP10;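 note: peptides expressed intracellularly from a pBAD plasmid library in pooled LB shake-flask culture, induced with 0.3% L-arabinose, DNA abundance read by NGS, three biological replicates, DESeq2 with apeglm shrinkage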
# Method Notes: shrunken log2 fold change of peptide-encoding DNA abundance (4.5 h post-induction vs induction); higher = less antimicrobial activity (less host growth inhibition)
# Condition: time post-induction: 4.5 h; library: site-saturation at positions 5, 18, 19, 20
Cut-off -0.1 on shrunken log2 fold change, inclusive. At or above means yes (1); below means no (0).

See these solved cases before continuing.
[[record]]
biosequence = "RRIRNRPPRLPRPRPRPPSAPRP"
cat = "yes (1)"

[[record]]
biosequence = "RRIRCRPPRLPRPRPRPFRAPRP"
cat = "no (0)"


Does shrunken log2 fold change meet or surpass -0.1 for "RRIRTRPPRLPRPRPRPGGQPRP" ?
yes (1)

Does shrunken log2 fold change meet or surpass -0.1 for "RRIRGRPPRLPRPRPRPKYDPRP" ?
yes (1)

Does shrunken log2 fold change meet or surpass -0.1 for "RRIRMRPPRLPRPRPRPCPDPRP" ?
yes (1)

Does shrunken log2 fold change meet or surpass -0.1 for "RRIRQRPPRLPRPRPRPYKLPRP" ?
no (0)
